# inhibition at 1 µM values compiled below
Molecular target: human androgen receptor (hAR) (Homo sapiens, UniProt P10275, T878A)
Construct: for the preparation of cytosolic receptor protein, the androgen-sensitive human prostate adenocarcinoma cell line LNCaP was used; endogenous in cells; host or cells: LNCaP (human prostate adenocarcinoma) cell cytosol fraction
Sequence (P10275 whole entry T878A): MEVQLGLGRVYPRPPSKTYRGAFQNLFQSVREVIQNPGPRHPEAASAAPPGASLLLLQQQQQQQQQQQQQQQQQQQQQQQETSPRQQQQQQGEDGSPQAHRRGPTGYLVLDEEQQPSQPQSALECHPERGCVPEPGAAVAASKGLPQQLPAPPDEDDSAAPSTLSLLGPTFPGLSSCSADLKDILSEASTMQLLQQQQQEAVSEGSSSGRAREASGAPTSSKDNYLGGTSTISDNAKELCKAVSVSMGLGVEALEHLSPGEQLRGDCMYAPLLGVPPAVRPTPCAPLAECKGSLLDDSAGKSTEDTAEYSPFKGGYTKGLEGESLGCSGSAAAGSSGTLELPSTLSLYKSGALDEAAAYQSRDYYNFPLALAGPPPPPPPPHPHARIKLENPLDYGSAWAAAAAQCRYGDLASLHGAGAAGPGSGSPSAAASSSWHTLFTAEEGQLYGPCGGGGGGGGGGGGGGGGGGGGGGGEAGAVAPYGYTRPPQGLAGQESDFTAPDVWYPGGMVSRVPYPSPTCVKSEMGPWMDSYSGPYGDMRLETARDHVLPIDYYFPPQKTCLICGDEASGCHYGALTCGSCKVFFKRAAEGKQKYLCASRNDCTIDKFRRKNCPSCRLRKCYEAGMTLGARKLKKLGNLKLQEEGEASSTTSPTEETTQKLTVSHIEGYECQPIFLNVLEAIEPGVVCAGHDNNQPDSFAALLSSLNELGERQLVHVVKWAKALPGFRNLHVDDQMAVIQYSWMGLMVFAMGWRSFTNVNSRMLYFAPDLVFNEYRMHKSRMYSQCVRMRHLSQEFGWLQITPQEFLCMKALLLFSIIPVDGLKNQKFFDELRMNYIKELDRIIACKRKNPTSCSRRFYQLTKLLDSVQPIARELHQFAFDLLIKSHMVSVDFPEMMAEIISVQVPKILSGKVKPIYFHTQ
Test: Binding assay with human androgen receptor, [3H]methyltrienolone, LNCaP cytosol
Settings: inhibition of [3H]methyltrienolone binding, compound 1 μM
Field format: number, assumed %, no unit text.

Here are 3 compounds together with their reported answers.
CC1(C)C(=O)N(c2ccc(C#N)c(C(F)(F)F)c2)C(=O)N1Cc1cccc(S(F)(F)(F)(F)F)c1: 39
CC1(C)C(=O)N(c2ccc(Cl)c(C(F)(F)F)c2)C(=O)N1Cc1ccc(C(F)(F)F)nc1: 53
CC1(C)C(=O)N(c2ccc(C#N)c(C(F)(F)F)c2)C(=O)N1Cc1ccccc1Oc1ccccc1: 30

Next compound, inhibition at 1 µM to be filled in.
Prompt line: Recorded inhibition at 1 µM for CC1(C)C(=O)N(c2ccc(Cl)c(C(F)(F)F)c2)C(=O)N1Cc1cc(C(F)(F)F)cc(C(F)(F)F)c1 , please?
Response line: 3
